system: NCI-H226 lung; experiment: NCI tumour cell line growth inhibition, 48 h
measurement kind: TGI (µM)
I only need the number, in µM, no unit after it.

INSERT INTO results (molecule, assay_result) VALUES
  ('COc1ccccc1C(=O)/C=C/c1cc2cccc(OC)c2[nH]c1=O', 3.47);

Reported TGI, molecule COc1cc([C@@H]2c3cc4c(cc3[C@H](OC3OC5COC(C(C)C)OC5C(O)C3O)C3COC(=O)[C@@H]32)OCO4)cc(OC)c1O (stereo not given in full) : ____
24

====

system: HL-60(TB) leukemia; assay: NCI tumour cell line growth inhibition, 48 h
measurement kind: TGI (µM)
I only need the number, in µM, no unit after it.

INSERT INTO results (compound, unit_of_measure, assay_result) VALUES
  ('CC1(C)N=C(N)N=C(N)N1c1cccc(/C=C/C=C/c2cccc([N+](=O)[O-])c2)c1', 'µM', 13);

Requested read-out TGI, target or system HL-60(TB) leukemia, entry C[C@H]1[C@H](OC(=O)CCC(=O)O)O[C@@H]2O[C@]3(C)CC[C@H]4[C@H](C)CC[C@@H]1[C@@]24OO3
0.566

Requested read-out TGI, target or system HL-60(TB) leukemia, entry N#C/C(=C\c1c(-c2ccccc2)[nH]c2ccccc12)C(=O)c1ccc(Cl)cc1
3.17

====

test system: HCT-15 colon; assay: NCI tumour cell line growth inhibition, 48 h; in the data active = GI50 below about 0.43 µM; inactive = the rest
Reply using exactly one outcome from class 1 = active, class 0 = inactive

INSERT INTO assay_data (molecule, label_value) VALUES
  ('C[C@@H](c1ccc2nccn2c1)n1nnc2ncc(-c3cnn(C)c3)nc21', 'class 0'),
  ('C1CCC([PH+](C2CCCCC2)C2CCCCC2[PH+](C2CCCCC2)C2CCCCC2)CC1.[Au].[CH-]1CCCCC1C1CCCC[N-]1 (centres undefined)', 'class 0'),
  ('CC1(C)N=C(N)N=C(N)N1c1cccc(/C=C/C=C/c2cccc([N+](=O)[O-])c2)c1', 'class 0'),
  ('O=C(Nc1ccncc1)C(=O)c1cn(S(=O)(=O)c2ccc(Br)cc2)c2ccccc12', 'class 0'),
  ('O/N=C1\CCc2cc(-c3nc(C4CCNCC4)[nH]c3-c3ccncc3)ccc21', 'class 0'),
  ('COc1cc[nH]c1/C=C1\C(=O)Nc2ccc(F)c(C#C[C@@H](O)[C@@H](N)[C@@H](C)O)c21', 'class 0'),
  ('COC(=O)c1cnc(=O)n(C2CC(O)C(CO)O2)c1 (centres undefined)', 'class 0'),
  ('O=C(c1ccccc1)c1nn(-c2ccc(Cl)cc2)c2nc3nc(-c4ccccc4)cc(=O)n3nc12', 'class 0');

Turning to the following molecule.
// return assay outcome for Cc1cc(NC(=O)C2c3ccccc3C(=O)N(CC(C)C)C2c2cccs2)no1 (centres undefined)
class 0

====

test system: NCI-H226 lung; assay: NCI tumour cell line growth inhibition, 48 h
// reported TGI per item

INSERT INTO assay_data (molecule, assay_result) VALUES
  ('Cc1ccc(-c2sc(-c3ccc(C)cc3)c3c2C2CCC3C2)cc1', '> 50 µM'),
  ('CC(=O)OCCC1c2ccccc2-n2nc(-c3ccccc3)c(O)c21 (configuration not stated)', '64.4 µM'),
  ('COc1cc(C(=O)O)c([N+](=O)[O-])c(OC)c1OC', '> 100 µM'),
  ('CCOC(=O)N1CCN(Cc2cc(=O)n3cc(C)ccc3n2)CC1', '> 100 µM'),
  ('Cc1ccc(-c2c(C#N)c(N)nc(N3CCOCC3)c2C#N)o1', '> 100 µM'),
  ('COC1C=C(Nc2cccc(Cl)c2)C(=O)C1 (configuration not stated)', '> 100 µM'),
  ('CCOC(=O)C1(Cc2ccccc2)Cc2cc3c(cc2C1)CCC3', '76.8 µM'),
  ('Cn1c(=O)n2n(c1=O)Cc1cccc3cccc(c13)C2', '> 100 µM'),
  ('O=C1C2=C(c3ccccc31)C(c1cccc(Cl)c1)NC(=S)N2 (configuration not stated)', '> 100 µM'),
  ('Clc1ccccc1/C=C/c1nsc(/C=C/c2ccccc2Cl)n1', '> 100 µM');

Reported TGI, molecule O=C(CCCc1c[nH]c2ccccc12)NC1CC(=O)c2c(Br)sc(Br)c21 (configuration not stated) : ____
35.5 µM

Reported TGI, molecule COc1cc(O)c(C(=O)/C=C/c2ccccc2)c(OC)c1 : ____
12.8 µM

====

// reported TGI per item
tested on: HCC-2998 colon; assay: NCI tumour cell line growth inhibition, 48 h

Worked examples, 2 compounds total:
INSERT INTO results (compound, measurement_kind, assay_result) VALUES
  ('O=C(O)C(CS)NCc1c2ccccc2[n+]([O-])c2ccccc12 (stereo not drawn)', 'TGI', '> 100 µM'),
  ('CCOC(=O)C1(Cc2ccccc2)Cc2cc3c(cc2C1)CCC3', 'TGI', '52.8 µM');

Reported TGI, compound C/C(=N\NC(=S)Nc1ccc(C(=O)O)cc1)c1ccccn1 : ____
32.7 µM

====

tested on: 786-0 renal; test: NCI tumour cell line growth inhibition, 48 h
measurement kind: TGI (µM)
I only need the number, in µM, no unit after it.

INSERT INTO assay_data (compound, assay_result) VALUES
  ('Cc1cc2c(C)c3cc(C)c(N)cc3nc2cc1N', 8.84),
  ('O/N=c1/ccn(O)c2ccccc12', 10.3),
  ('CCC1(OC(=O)CN2CCN(CCO)CC2)C(=O)OCc2c1cc1n(c2=O)Cc2cc3ccccc3nc2-1 (configuration not stated)', 2.53),
  ('COC(=O)[C@]12CC[C@@H](C)[C@H](C)[C@@H]1C1=CC[C@@H]3[C@@]4(C)CC(=O)[C@H](O)[C@@]5(C)COC(=C45)C[C@@]3(C)[C@]1(C)CC2', 34.2),
  ('COc1ccc(/C(=C/c2cc(OC)c(OC)c(OC)c2)[N+](=O)[O-])cc1', 3.05);

Reported TGI, compound CC[C@@H]1CN2CCC1C[C@@H]2C(O)c1ccnc2ccc(OCCN3CCN(CCOc4ccc5nccc(C(O)[C@@H]6C[C@@H]7CCN6C[C@@H]7CC)c5c4)CC3)cc12 (some centres not stated) : ____
30.2

Reported TGI, compound CC(=O)Oc1ccc(N2C(=O)C3c4[nH]c5ccccc5c4C4CCC(C(C)(C)C)CC4C3C2=O)cc1 (configuration not stated) : ____
4.31

Reported TGI, compound CCOC(=O)c1cccc(NC(=O)CBr)c1 : ____
0.494

====

tested on: HOP-62 NSCLC; experiment: NCI tumour cell line growth inhibition, 48 h; in the data active = GI50 below about 0.43 µM; inactive = the rest
Reply using exactly one outcome from active, inactive

// return assay outcome for O=C1c2cc3c(cc2-c2c1c1cc(Cl)c(Cl)cc1c(=O)n2CCCn1ccnc1)OCO3
active

// return assay outcome for Cc1cc2c(C)c3cc(C)c(N)cc3nc2cc1N
inactive

// return assay outcome for COc1cc[nH]c1/C=C1\C(=O)Nc2ccc(F)c(C#C[C@@H](O)[C@@H](N)[C@@H](C)O)c21
inactive

====

// reported TGI per item
test system: HOP-62 NSCLC; assay: NCI tumour cell line growth inhibition, 48 h
I only need the number, in µM, no unit after it.

INSERT INTO measurements (compound, assay_result) VALUES
  ('Cn1ncc2cc3c(Nc4ccc(Cl)cc4)cccc3nc21', 53),
  ('O=[N+]([O-])c1ccc(N/N=C\c2cc(Cl)ccc2O)nc1', 11.9);

Reported TGI, compound CC(=O)Oc1ccc(N2C(=O)C3c4[nH]c5ccccc5c4C4CCC(C(C)(C)C)CC4C3C2=O)cc1 (stereo unspecified) : ____
13.5

====

test system: SF-539 CNS; experiment: NCI tumour cell line growth inhibition, 48 h
Short version: TGI at least 30 µM is y, less is n.

Some solved cases for reference:
INSERT INTO assay_data (molecule, label_value) VALUES
  ('O=C(c1cccs1)c1c(C(F)(F)F)n([O-])c2ccc(C(F)(F)F)cc2[n+]1=O', 'n'),
  ('COc1c(OC(C)=O)ccc(/C=C2\N=C(C)OC2=O)c1[N+](=O)[O-]', 'y'),
  ('CN(C)CCOc1ccc(I)cc1Cc1ccccc1', 'n'),
  ('Cc1ccc2c(c1)NC(c1ccc(C(=O)O)cc1)c1cccn1-2 (stereo not given)', 'y'),
  ('CC1=C(C(=O)Nc2ccccc2)C(c2ccc3c(c2)OCO3)C(C(=O)Nc2ccccc2)=C(C)N1', 'y');

In plain terms: is recorded TGI at least 30 µM for ClC(Cl)(Cl)C1CCOC1n1nc2ccccc2n1 (stereo not given) ?
y

In plain terms: is recorded TGI at least 30 µM for O=[N+]([O-])c1ccc(N/N=C\c2cc(Cl)ccc2O)nc1 ?
y

In plain terms: is recorded TGI at least 30 µM for O=S(=O)(c1cc(Cl)ccc1Cl)N1CCN(c2ccc(Cl)c(Cl)c2)CC1 ?
y

In plain terms: is recorded TGI at least 30 µM for N#C/C(=C\c1c(-c2ccccc2)[nH]c2ccccc12)C(=O)c1ccc(Cl)cc1 ?
n

In plain terms: is recorded TGI at least 30 µM for Cn1cc(-c2ccc(=O)n(Cc3cccc(-c4ncc(OCCN5CCOCC5)cn4)c3)n2)cn1 ?
y

src = PubChem BioAssay (NCI)
